Reported values of pEC50 for individual entries
- Test system: Caspase3
- protocol notes: Western Blotting, increase of Caspase3 level
- Type: cell-based
- experimental conditions: liver cancer cells, Lewis lung cancer cells and other cancer cell lines and tumor tissue protein lysates, 48 h treatment, read-out: Effective concentration to increase Caspase-3 by 50%
pEC50: −log10 of the molar value.

The cases that follow already have their pEC50 on record.
molecule | pEC50
CCNC(=O)CC[C@@H](NC(=O)c1cc2cc(Cl)cc(Cl)c2oc1=O)C(=O)OCC | > 4.15
CC[C@]1(O)C[C@H]2CN(CCc3c([nH]c4ccccc34)[C@@](C(=O)OC)(c3cc4c(cc3OC)N(C=O)[C@H]3[C@@](O)(C(=O)OC)[C@H](OC(C)=O)[C@]5(CC)C=CCN6CC[C@]43[C@@H]65)C2)C1 [Vincristine, reference compound] | < 4.15
CCNC(=O)CCC(NC(=O)c1cc2cc([N+](=O)[O-])ccc2oc1=O)C(=O)OCC (stereo in doubt) | > 4.10
CCNC(=O)CCC(NC(=O)c1cc2ccccc2oc1=O)C(=O)OCC (stereo not drawn) | > 3.92
CCNC(=O)CC[C@@H](NC(=O)c1cc2cc(Br)ccc2oc1=O)C(=O)OCC | > 4.00
CCNC(=O)CC[C@@H](NC(=O)c1cc2cc(Br)cc(Br)c2oc1=O)C(=O)OCC | > 4.15

// pEC50 lookup, key: `CCNC(=O)CC[C@@H](NC(=O)c1cc2cc(Cl)ccc2oc1=O)C(=O)OCC` > 4.00

Also check CCNC(=O)CCC(NC(=O)c1cc2cc(F)ccc2oc1=O)C(=O)OCC (stereo in doubt) > 4.00

Also check CCNC(=O)CCC(NC(=O)c1cc2ccccc2oc1=O)C(=O)OC (stereo not drawn) > 3.90

----------
- Test system: human liver cancer cells SMMC7721 xenograft
- protocol notes: In-vivo growth of SMMC7721 xenografts in nude mice
- Design: species or system BALB/c nude mice
- experimental conditions: Mus musculus, SMMC-7721, ip; S-7721 xenograft; 60 mg/kg intraperitoneal once a day; vs DMSO solvent control; read-out: Curative effect (inhibition rate %) of tumor weight
Reported values of inhibition in vivo at 60 mg/kg for individual entries
Use % as the unit, but write only the number.

compound | assayed target | observed value
CCNC(=O)CCC(NC(=O)c1cc2cc(F)ccc2oc1=O)C(=O)OCC (stereo in doubt) | human liver cancer cells SMMC7721 xenograft | 64.8
CCNC(=O)CCC(NC(=O)c1cc2cc([N+](=O)[O-])ccc2oc1=O)C(=O)OCC (stereo in doubt) | human liver cancer cells SMMC7721 xenograft | 65.7
CCNC(=O)CCC(NC(=O)c1cc2ccccc2oc1=O)C(=O)OC (stereo not drawn) | human liver cancer cells SMMC7721 xenograft | 52.7
CCNC(=O)CC[C@@H](NC(=O)c1cc2cc(Br)ccc2oc1=O)C(=O)OCC | human liver cancer cells SMMC7721 xenograft | 67.2
CCNC(=O)CC[C@H](N)C(=O)OCC | human liver cancer cells SMMC7721 xenograft | 44.6

Lab note: next compound to report on.
// inhibition in vivo at 60 mg/kg lookup, key: `CCNC(=O)CC[C@@H](NC(=O)c1cc2cc(Cl)cc(Cl)c2oc1=O)C(=O)OCC` 53.6

----------
- Test system: human pancreatic cancer cells PANC-1
- protocol notes: MTT growth inhibition, PANC-1 cells
- Type: cell-based
- experimental conditions: 72 h after treatment, read-out: Drug concentration (IC50) at which 50% cancer cells survived
Reported values of IC50 for individual entries
Use µM as the unit, but write only the number.

The cases that follow already have their IC50 on record.
compound | IC50 / µM
CCNC(=O)CCC(NC(=O)c1cc2cc([N+](=O)[O-])ccc2oc1=O)C(=O)OCC (stereo in doubt) | 77
CCNC(=O)CCC(NC(=O)c1cc2ccccc2oc1=O)C(=O)OCC (stereo not shown) | 65
CCNC(=O)CC[C@@H](NC(=O)c1cc2cc(Br)ccc2oc1=O)C(=O)OCC | 55

Lab note: next compound to report on.
// IC50 lookup, key: `O=C(O)c1cc2cc([N+](=O)[O-])ccc2oc1=O` 430

----------
Reported values of IC50 for individual entries
- System: human pancreatic cancer cells PANC-1
- protocol notes: MTT growth inhibition, PANC-1 cells
- Type: cell-based
- experimental conditions: 72 h after treatment, read-out: Drug concentration (IC50) at which 50% cancer cells survived
Use µM as the unit, but write only the number.

// IC50 lookup, key: O=C(O)c1cc2cc(Cl)cc(Cl)c2oc1=O [Compound IIIg, 6,8-dichloro-coumarin-3-carboxylic acid] 430

Also check O=C(O)c1cc2cc(Br)cc(Br)c2oc1=O [Compound IIIh, 6,8-dibromo-coumarin-3-carboxylic acid] 480

Also check CCNC(=O)CC[C@@H](NC(=O)c1cc2cc(Br)cc(Br)c2oc1=O)C(=O)OCC [Compound Ih] 78

Also check O=C(O)c1cc2cc(F)ccc2oc1=O [Compound IIIe, 6-fluorocoumarin-3-carboxylic acid] 480

Also check O=C(O)c1cc2cc(Cl)ccc2oc1=O [Compound IIIc, 6-chlorocoumarin-3-carboxylic acid] 500

Also check CCNC(=O)CC[C@H](N)C(=O)OC [Compound IIa, theanine methyl ester] 280

----------
Reported values of Excitation (fluorescent wavelength range detectable in vivo and in vitro) for individual entries
- protocol notes: Fluorescent imaging in vivo and in vitro
- Assay type: physicochemical
- experimental conditions: 60 mg/kg body weight/0.2 ml

compound | observed value
CCNC(=O)CC[C@@H](NC(=O)c1cc2cc(Br)ccc2oc1=O)C(=O)OCC | 36-610 nm
CCNC(=O)CCC(NC(=O)c1cc2cc(F)ccc2oc1=O)C(=O)OCC (stereo in doubt) | 360-610 nm
CCNC(=O)CC[C@@H](NC(=O)c1cc2cc(Cl)ccc2oc1=O)C(=O)OCC | 360-610 nm

Lab note: next compound to report on.
// Excitation (fluorescent wavelength range detectable in vivo and in vitro) lookup, key: CCNC(=O)CCC(NC(=O)c1cc2ccccc2oc1=O)C(=O)OCC (stereo not shown) 360-610 nm

----------
- Test system: human liver cancer cells SMMC7721 xenograft
- protocol notes: In-vivo growth of SMMC7721 xenografts in nude mice
- Set-up: species or system BALB/c nude mice
- experimental conditions: Mus musculus, SMMC-7721, ip; S-7721 xenograft; 90 mg/kg intraperitoneal once a day; vs DMSO solvent control; read-out: Curative effect (inhibition rate %) of tumor weight
quantity measured: inhibition in vivo at 90 mg/kg (%)
Use % as the unit, but write only the number.

The cases that follow already have their inhibition in vivo at 90 mg/kg on record.
compound | quantity measured | observed value
CCNC(=O)CC[C@@H](NC(=O)c1cc2cc(Cl)cc(Cl)c2oc1=O)C(=O)OCC | inhibition in vivo at 90 mg/kg | 70.6
CCNC(=O)CCC(NC(=O)c1cc2cc(F)ccc2oc1=O)C(=O)OCC (stereo in doubt) | inhibition in vivo at 90 mg/kg | 69.9

// inhibition in vivo at 90 mg/kg lookup, key: `CCNC(=O)CC[C@@H](NC(=O)c1cc2cc(Br)cc(Br)c2oc1=O)C(=O)OCC` 78.7

Also check `CCNC(=O)CC[C@H](N)C(=O)OC` 38.2

----------
- Tested on: Dvl-1
- protocol notes: Western Blotting, Dvl-1 level
- Type: cell-based
- experimental conditions: human liver cancer cells, Lewis lung cancer cells and other cancer cell lines and tumor tissues, read-out: Effective concentration (IC50) for inhibition of Dvl-1
Reported values of IC50 for individual entries

The cases that follow already have their IC50 on record.
compound | quantity measured | observed value
CCNC(=O)CC[C@@H](NC(=O)c1cc2cc(Cl)cc(Cl)c2oc1=O)C(=O)OCC [Compound Ig] | IC50 | < 125 µM
CCNC(=O)CC[C@@H](NC(=O)c1cc2cc(Br)ccc2oc1=O)C(=O)OCC [Compound Id] | IC50 | < 250 µM
CCNC(=O)CCC(NC(=O)c1cc2ccccc2oc1=O)C(=O)OCC (centres unmarked) [Compound Ib] | IC50 | < 300 µM
CCNC(=O)CC[C@@H](NC(=O)c1cc2cc(Br)cc(Br)c2oc1=O)C(=O)OCC [Compound Ih] | IC50 | < 250 µM
CCNC(=O)CC[C@@H](NC(=O)c1cc2cc(Cl)ccc2oc1=O)C(=O)OCC [Compound Ic] | IC50 | < 250 µM
CCNC(=O)CCC(NC(=O)c1cc2cc(F)ccc2oc1=O)C(=O)OCC (stereo in doubt) [Compound Ie] | IC50 | < 150 µM

// IC50 lookup, key: CCNC(=O)CCC(NC(=O)c1cc2ccccc2oc1=O)C(=O)OC (centres unmarked) [Compound Ia] < 135 µM

Also check CCNC(=O)CCC(NC(=O)c1cc2cc([N+](=O)[O-])ccc2oc1=O)C(=O)OCC (stereo in doubt) [Compound If] < 200 µM
